Conditions: in n-pentanol, 303.15 K
Result type: solubility (mole fraction)
Quick one: just the number, no unit, thanks!

// solubility (mole fraction) lookup, key: `CC(C)(N)C(=O)O`
0.000448

----------
Conditions: in isopropanol, 323.15 K
Result type: solubility (mole fraction)
Quick one: just the number, no unit, thanks!

// solubility (mole fraction) lookup, key: `CC(C)(N)C(=O)O`
0.000576

----------
Details: in methanol, 313.15 K
Result type: solubility (mole fraction)
Quick one: just the number, no unit, thanks!

// solubility (mole fraction) lookup, key: `CC(C)(N)C(=O)O`
0.00106

----------
Conditions: in DMF, 303.15 K
Result type: solubility (mole fraction)
Quick one: just the number, no unit, thanks!

// solubility (mole fraction) lookup, key: `CC(C)(N)C(=O)O`
0.00102
